- System: CASSIA OBTUSIFOLIA, L.
- Test protocol: Postemergence herbicidal evaluation, CASOB (Sicklepod)
- Format: in vivo
- Parameters: key: 0-9 visual rating scale vs untreated control
- Study conditions: 0.125 kg/ha
- Protocol: In the tests, seedling plants are grown in jiffy flats for about two weeks. The test compounds are dispersed in 50/50 acetone/water mixtures containing 0.5% TWEEN®20, a polyoxyethylene sorbitan monolaurate surfactant of Atlas Chemical Industries, in sufficient quantities to provide the equivalent of about 0.125 kg to 0.500 kg per hectare of active compound when applied to the plants through a spray nozzle operating at 40 psi for a predetermined time. […]
Attribute measured: Herbicidal effect rating, CASOB

Worked cases, Herbicidal effect rating, CASOB given:
Cn1c(=O)[nH]c(=O)n(-c2cc(Oc3ccc(C(F)(F)F)cc3Cl)ccc2[N+](=O)[O-])c1=O [B, reference compound] | 8.0
COC(=O)Cn1c(=O)n(C)c(=O)n(-c2cc(Oc3ccc(C(F)(F)F)cc3Cl)ccc2[N+](=O)[O-])c1=O [Compound 3] | 8.8
COC(=O)Cn1c(=O)n(C)c(=O)n(-c2cc(Oc3c(F)cc(C(F)(F)F)cc3Cl)ccc2Br)c1=O [Compound 2] | 9.0
Cn1c(=O)[nH]c(=O)n(-c2cc(Oc3c(F)cc(C(F)(F)F)cc3Cl)ccc2F)c1=O [C, reference compound] | 4.0

With those in mind, consider the next compound.
Which Herbicidal effect rating, CASOB value is on record for COC(=O)Cn1c(=O)n(C)c(=O)n(-c2cc(Oc3c(F)cc(C(F)(F)F)cc3Cl)ccc2F)c1=O [Compound 4] ?
9.0

###

- Tested on: CHENOPODIUM ALBUM, L.
- Test protocol: Preemergence herbicidal evaluation, CHEAL (Lambsquarters, Common)
- Assay type: in vivo
- Study conditions: Rate 0.125 kg/ha, four to five weeks after treatment
Attribute measured: CHEAL rating

COC(=O)Cn1c(=O)n(C)c(=O)n(-c2cc(Oc3c(F)cc(C(F)(F)F)cc3Cl)ccc2Br)c1=O | 9.0

Which CHEAL rating value is on record for `COC(=O)Cn1c(=O)[nH]c(=O)n(-c2cc(Oc3ccc(C(F)(F)F)cc3Cl)ccc2[N+](=O)[O-])c1=O` ?
9.0

Which CHEAL rating value is on record for COC(=O)C(C)n1c(=O)n(C)c(=O)n(-c2cc(Oc3c(F)cc(C(F)(F)F)cc3Cl)ccc2Br)c1=O (stereo not shown) ?
9.0

Which CHEAL rating value is on record for `CCOC(=O)Cn1c(=O)[nH]c(=O)n(-c2cc(Oc3ccc(C(F)(F)F)cc3Cl)ccc2[N+](=O)[O-])c1=O` ?
9.0

###

- Test system: TRITICUM AESTIVUM, CV. APOLLO
- Test protocol: Postemergence herbicidal evaluation, TRZAWO (Wheat, Winter, CV. APOLLO)
- Format: in vivo
- Study conditions: 0.031 kg/ha
Some compounds, each annotated with its measured Herbicidal effect rating, TRZAWO.
# print the numeric value only

Return Herbicidal effect rating, TRZAWO measured with TRITICUM AESTIVUM, CV. APOLLO given this compound: Cn1c(=O)[nH]c(=O)n(-c2cc(Oc3c(F)cc(C(F)(F)F)cc3Cl)ccc2F)c1=O [C, reference compound]
3.5

Return Herbicidal effect rating, TRZAWO measured with TRITICUM AESTIVUM, CV. APOLLO given this compound: `COC(=O)Cn1c(=O)n(C)c(=O)n(-c2cc(Oc3ccc(C(F)(F)F)cc3Cl)ccc2[N+](=O)[O-])c1=O`
6.1

Return Herbicidal effect rating, TRZAWO measured with TRITICUM AESTIVUM, CV. APOLLO given this compound: `COC(=O)Cn1c(=O)n(C)c(=O)n(-c2cc(Oc3c(F)cc(C(F)(F)F)cc3Cl)ccc2F)c1=O`
6.3

Return Herbicidal effect rating, TRZAWO measured with TRITICUM AESTIVUM, CV. APOLLO given this compound: Cn1c(=O)[nH]c(=O)n(-c2cc(Oc3ccc(C(F)(F)F)cc3Cl)ccc2[N+](=O)[O-])c1=O [B, reference compound]
3.0

###

- System: GLYCINE MAX(L) MERR. CV. WILLIAMS
- Test protocol: Postemergence herbicidal evaluation, GLXMAW (Soybean, Williams)
- Type: in vivo
- Set-up: key: 0-9 visual rating scale vs untreated control
- Study conditions: Rate 0.063 kg/ha
- Procedure: In the tests, seedling plants are grown in jiffy flats for about two weeks. The test compounds are dispersed in 50/50 acetone/water mixtures containing 0.5% TWEEN®20, a polyoxyethylene sorbitan monolaurate surfactant of Atlas Chemical Industries, in sufficient quantities to provide the equivalent of about 0.125 kg to 0.500 kg per hectare of active compound when applied to the plants through a spray nozzle operating at 40 psi for a predetermined time. […]
Please assign NO whenever GLXMAW is at or above 4, and YES whenever it is below.

Some solved cases for reference:
Cn1c(=O)[nH]c(=O)n(-c2cc(Oc3c(F)cc(C(F)(F)F)cc3Cl)ccc2[N+](=O)[O-])c1=O [D, reference compound] | NO
Cn1c(=O)[nH]c(=O)n(-c2cc(Oc3ccc(C(F)(F)F)cc3Cl)ccc2Cl)c1=O [F, reference compound] | NO
COC(=O)Cn1c(=O)n(C)c(=O)n(-c2cc(Oc3c(F)cc(C(F)(F)F)cc3Cl)ccc2[N+](=O)[O-])c1=O | NO

GLXMAW strictly < 4 for this compound? `COC(=O)Cn1c(=O)n(C)c(=O)n(-c2cc(Oc3ccc(C(F)(F)F)cc3Cl)ccc2Cl)c1=O`
NO

GLXMAW strictly < 4 for this compound? Cn1c(=O)[nH]c(=O)n(-c2cccc(Oc3ccc(C(F)(F)F)cc3Cl)c2)c1=O [E, reference compound]
YES

###

Some compounds, each annotated with its measured Herbicidal effect rating, ECHCG.
- Tested on: ECHINOCHLOA CRUS-GALLI, (L) BEAU
- Test protocol: Postemergence herbicidal evaluation, ECHCG (Barnyardgrass)
- Format: in vivo
- Parameters: key: 0-9 visual rating scale vs untreated control
- Study conditions: 0.250 kg/ha
# print the numeric value only

Worked cases, Herbicidal effect rating, ECHCG given:
COC(=O)Cn1c(=O)n(C)c(=O)n(-c2cc(Oc3c(F)cc(C(F)(F)F)cc3Cl)ccc2Br)c1=O | 9.0
Cn1c(=O)[nH]c(=O)n(-c2cc(Oc3c(F)cc(C(F)(F)F)cc3Cl)ccc2Br)c1=O [A, reference compound] | 2.0

Which Herbicidal effect rating, ECHCG value is on record for `COC(=O)Cn1c(=O)n(C)c(=O)n(-c2cc(Oc3ccc(C(F)(F)F)cc3Cl)ccc2[N+](=O)[O-])c1=O` ?
7.9

Which Herbicidal effect rating, ECHCG value is on record for Cn1c(=O)[nH]c(=O)n(-c2cc(Oc3ccc(C(F)(F)F)cc3Cl)ccc2[N+](=O)[O-])c1=O [B, reference compound] ?
3.5

Which Herbicidal effect rating, ECHCG value is on record for `COC(=O)Cn1c(=O)n(C)c(=O)n(-c2cc(Oc3c(F)cc(C(F)(F)F)cc3Cl)ccc2F)c1=O` ?
8.9

Which Herbicidal effect rating, ECHCG value is on record for Cn1c(=O)[nH]c(=O)n(-c2cc(Oc3c(F)cc(C(F)(F)F)cc3Cl)ccc2F)c1=O [C, reference compound] ?
2.0

###

Some molecules, each annotated with its measured Herbicidal effect rating, ORYSAT.
- Tested on: ORYZA SATIVA, L. TEBONNET
- Test protocol: Rice tolerance to post-transplant applications under flooded paddy conditions, ORYSAT (Rice, Tebonnet)
- Type: in vivo
- Study conditions: 0.500 kg/ha, post-transplant rice, 3-4 weeks after treatment
# print the numeric value only

Cn1c(=O)n(CC(N)=O)c(=O)n(-c2cc(Oc3ncc(C(F)(F)F)cc3Cl)ccc2Br)c1=O [Compound 42] | 2.0
COC(=O)Cn1c(=O)n(C)c(=O)n(-c2cc(Oc3cc(Cl)cc(Cl)c3Cl)ccc2[N+](=O)[O-])c1=O [Compound 25] | 0.0
COC(=O)Cn1c(=O)n(C)c(=O)n(-c2cc(Oc3ncc(C(F)(F)F)cc3Cl)ccc2Br)c1=O [Compound 45] | 6.0
COC(=O)Cn1c(=O)n(C)c(=O)n(-c2cc(Oc3cc(Cl)c(Cl)cc3Cl)ccc2[N+](=O)[O-])c1=O [Compound 31] | 2.0
COC(=O)Cn1c(=O)n(C)c(=O)n(-c2cc(Oc3cc(OC)c(Cl)cc3Cl)ccc2[N+](=O)[O-])c1=O [Compound 29] | 0.0

Which Herbicidal effect rating, ORYSAT value is on record for COC(=O)Cn1c(=O)n(C)c(=O)n(-c2cc(Oc3ccc(F)cc3C(F)(F)F)ccc2[N+](=O)[O-])c1=O [Compound 21] ?
0.5

Which Herbicidal effect rating, ORYSAT value is on record for COC(=O)Cn1c(=O)n(C)c(=O)n(-c2cc(Oc3cccc(Cl)c3Cl)ccc2[N+](=O)[O-])c1=O [Compound 22] ?
2.0

Which Herbicidal effect rating, ORYSAT value is on record for C=CCn1c(=O)n(CC(=O)OCC)c(=O)n(-c2cc(Oc3ccc(C(F)(F)F)cc3Cl)ccc2[N+](=O)[O-])c1=O [Compound 13] ?
3.0
